Assay: Pharmacokinetics after oral (PO) and intravenous (IV) administration, serum
Type: in vivo, rat
Settings: male, C57BL/6, mouse, oral, 100 mg/kg

>  <molecule>
CNC(=O)c1ccnc(NC(=O)N2CCC(Oc3ccccc3Cl)CC2)c1 [SSI-4]

>  <AUC, µg·h/mL>
336

$$$$

----------
Experiment: Pharmacokinetics after oral (PO) and intravenous (IV) administration, serum
Format: in vivo, rat
Conditions: male, C57BL/6, mouse, po, 100 mg/kg

>  <chemical-structure>
CNC(=O)c1ccnc(NC(=O)N2CCC(Oc3ccccc3Cl)CC2)c1

>  <Cmax>
~43300 ng/mL

$$$$

----------
Experiment: Pharmacokinetics after oral (PO) and intravenous (IV) administration, serum
Format: in vivo, rat
Conditions: male, C57BL/6, mouse, po, 100 mg/kg, oral, 100 mg/kg, read-out: T1/2 (converted)
measured-endpoint: half-life

>  <chemical-structure>
CNC(=O)c1ccnc(NC(=O)N2CCC(Oc3ccccc3Cl)CC2)c1

>  <measurement>
3.94 h

$$$$

----------
Assay: Pharmacokinetics after oral (PO) and intravenous (IV) administration, serum
Format: in vivo, rat
Details: male, C57BL/6, mouse, po, 30 mg/kg, oral, 30 mg/kg, read-out: T1/2 (converted)
measured-endpoint: half-life

>  <chemical-structure>
CNC(=O)c1ccnc(NC(=O)N2CCC(Oc3ccccc3Cl)CC2)c1

>  <measurement>
163 min

$$$$

----------
Experiment: Pharmacokinetics after oral (PO) and intravenous (IV) administration, serum
Assay type: in vivo, rat
Conditions: male, C57BL/6, mouse, po, 30 mg/kg

>  <compound>
CNC(=O)c1ccnc(NC(=O)N2CCC(Oc3ccccc3Cl)CC2)c1 [SSI-4]

>  <Cmax>
~15900 ng/mL

$$$$

----------
Molecular target: SCD1 protein extracted from murine liver (Mus musculus)
Construct: Microsomes were isolated from murine liver using Microsome Isolation Kit (BioVision); from tissue; host or cells: murine liver microsomes
Sequence (P13516 whole entry): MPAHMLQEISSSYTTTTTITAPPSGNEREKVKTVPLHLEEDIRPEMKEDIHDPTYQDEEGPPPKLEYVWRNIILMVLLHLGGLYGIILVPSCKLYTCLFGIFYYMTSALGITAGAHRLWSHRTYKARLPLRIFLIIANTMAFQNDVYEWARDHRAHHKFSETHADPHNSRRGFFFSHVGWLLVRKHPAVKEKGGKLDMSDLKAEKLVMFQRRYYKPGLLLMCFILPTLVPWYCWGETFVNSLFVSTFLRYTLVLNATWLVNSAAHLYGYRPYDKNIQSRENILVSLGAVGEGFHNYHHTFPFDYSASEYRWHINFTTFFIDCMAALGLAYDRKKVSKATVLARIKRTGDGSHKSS
Test: In vitro SCD1 enzymatic inhibition by LC/MS (stearoyl-CoA to oleoyl-CoA, liver microsomes)
Type: biochemical
Details: n=2
Measured IC50 by item
measured-endpoint: IC50 (nM)

>  <molecule>
CNC(=O)c1ccnc(NC(=O)N2CCC(Oc3ccccc3Cl)CC2)c1

>  <measurement>
1.9

$$$$
>  <molecule>
Cc1nnc(-c2ccc(N3CCC(Oc4ccccc4C(F)(F)F)CC3)nn2)s1 [MF-438, reference compound]

>  <measurement>
1.1

$$$$

----------
Assay: Pharmacokinetics after oral (PO) and intravenous (IV) administration, serum
Format: in vivo, rat
Settings: male, C57BL/6, mouse, absolute, oral 10 mg/kg, from AUC0-last and nominal dose
measured-endpoint: bioavailability (%)

>  <molecule>
CNC(=O)c1ccnc(NC(=O)N2CCC(Oc3ccccc3Cl)CC2)c1 [SSI-4]

>  <measurement>
119

$$$$

----------
Experiment: Pharmacokinetics after oral (PO) and intravenous (IV) administration, serum
Assay type: in vivo, rat
Settings: male, C57BL/6, mouse, absolute, oral 100 mg/kg, from AUC0-last and nominal dose

>  <compound>
CNC(=O)c1ccnc(NC(=O)N2CCC(Oc3ccccc3Cl)CC2)c1 [SSI-4]

>  <bioavailability [%]>
212

$$$$

----------
Assay: Pharmacokinetics after oral (PO) and intravenous (IV) administration, serum
Type: in vivo, rat
Conditions: male, C57BL/6, mouse, po, 10 mg/kg

>  <chemical-structure>
CNC(=O)c1ccnc(NC(=O)N2CCC(Oc3ccccc3Cl)CC2)c1

>  <Cmax>
~4320 ng/mL

$$$$
